Recorded pIC50 by entry
target_system: Bromodomain-containing protein 4 (Homo sapiens)
assay_text: Inhibition of N-terminal GST-tagged/C-terminal 6His-tagged BRD4 BD1 (47 to 170 residues) (unknown origin) expressed in Escherichia coli BL21 (DE3) using SGRGK(Ac)GGK(Ac)GLGK(Ac) GGAK(Ac)RHRK-biotinylated peptide as substrate incubated for 60 mins by alpha screen assay
Reminder that pIC50 is minus the log10 of a molar concentration.

CC(C)Nc1ccc([N+](=O)[O-])c(Nc2ccc3[nH]nnc3c2)n1 ... 5.01

### Prompt For the compound shown here, CC(C)Nc1ccc(NS(C)(=O)=O)c(Nc2ccc3[nH]nnc3c2)n1 , give the reported pIC50.
### Response 5.61

### Prompt For the compound shown here, CC(C)Nc1ccc(NS(=O)(=O)C2CCCCC2)c(Nc2ccc3[nH]nnc3c2)n1 , give the reported pIC50.
### Response 6.18

---

target_system: Bromodomain-containing protein 4 (Homo sapiens)
assay_text: Inhibition of N-terminal GST-tagged/C-terminal 6His-tagged BRD4 BD1 (47 to 170 residues) (unknown origin) expressed in Escherichia coli BL21 (DE3) using SGRGK(Ac)GGK(Ac)GLGK(Ac) GGAK(Ac)RHRK-biotinylated peptide as substrate incubated for 60 mins by alpha screen assay
Recorded pIC50 by entry
Reminder that pIC50 is minus the log10 of a molar concentration.

Answered cases to consult:
CC(C)Nc1ccc(NS(=O)(=O)c2cccs2)c(Nc2ccc3[nH]nnc3c2)n1 ... 6.11
CC(C)Nc1ccc(NS(=O)(=O)C(C)C)c(Nc2ccc3[nH]nnc3c2)n1 ... 5.95
CC(C)Nc1ccc(NS(=O)(=O)c2ccc(F)cc2F)c(Nc2ccc3[nH]nnc3c2)n1 ... 6.10
CN(C)S(=O)(=O)Nc1ccc(NCC(c2ccccc2)c2ccccc2)nc1Nc1ccc2[nH]nnc2c1 ... 5.05

Next up:
### Prompt Checklist item: pIC50 tested on Bromodomain-containing protein 4 (Homo sapiens), entry CC(C)Nc1ccc(NS(=O)(=O)c2c(F)cc(F)cc2F)c(Nc2ccc3[nH]nnc3c2)n1 , value?
### Response 6.21

---

target_system: Bromodomain-containing protein 4 (Homo sapiens, UniProt O60885)
assay_text: Inhibition of N-terminal GST-tagged/C-terminal 6His-tagged BRD4 BD1 (47 to 170 residues) (unknown origin) expressed in Escherichia coli BL21 (DE3) using SGRGK(Ac)GGK(Ac)GLGK(Ac) GGAK(Ac)RHRK-biotinylated peptide as substrate incubated for 60 mins by alpha screen assay
measured_metric: IC50
Form entry: enter the amount, then its unit.

Answered cases to consult:
CN(C)S(=O)(=O)Nc1ccc(NCC(O)c2ccccc2)nc1Nc1ccc2[nH]nnc2c1 (centres undefined) ... 5.59 µM
CN(C)S(=O)(=O)Nc1ccc(NCC2CCCO2)nc1Nc1ccc2[nH]nnc2c1 (centres undefined) ... 9.6 µM
CN(C)S(=O)(=O)Nc1ccc(NCC2CC2)nc1Nc1ccc2[nH]nnc2c1 ... 4.45 µM

Next up:
### Prompt For the compound shown here, CC(C)Nc1ccc(NS(=O)(=O)c2ccccc2)c(Nc2ccc3[nH]nnc3c2)n1 , give the reported IC50.
### Response 0.51 µM
